Reported koff is given for each of the following binders.
# target-or-system: human FLT3 (hFLT3) (human) (UniProt P36888)
# Sequence (P36888 27-543 limits assumed): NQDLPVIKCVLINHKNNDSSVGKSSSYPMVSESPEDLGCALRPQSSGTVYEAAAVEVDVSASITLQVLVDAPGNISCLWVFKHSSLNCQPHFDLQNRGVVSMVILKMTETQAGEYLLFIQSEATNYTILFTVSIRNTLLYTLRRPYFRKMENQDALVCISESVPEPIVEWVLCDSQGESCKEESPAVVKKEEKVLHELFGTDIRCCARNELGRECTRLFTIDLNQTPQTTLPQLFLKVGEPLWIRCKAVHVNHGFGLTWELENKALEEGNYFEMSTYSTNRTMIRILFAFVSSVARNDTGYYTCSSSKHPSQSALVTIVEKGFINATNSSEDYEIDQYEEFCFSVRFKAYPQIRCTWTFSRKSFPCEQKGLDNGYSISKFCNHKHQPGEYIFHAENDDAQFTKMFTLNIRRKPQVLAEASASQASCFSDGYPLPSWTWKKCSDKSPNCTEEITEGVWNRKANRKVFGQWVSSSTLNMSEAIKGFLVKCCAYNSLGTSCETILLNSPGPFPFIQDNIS
# protocol-description: SPR, Table 6, scFv format; set-up and antigen species not described
The answer is to be given in s⁻¹; state only the numeric part.

Consider the worked cases shown below.
binder	koff [s⁻¹]
P3E10 (scFv format) (scFv, part only; not given: linker, domain order, tags, V domains shown, not shown: another chain or arm of the molecule; small tags and cut ends) VH: QVQLVQSGAEVKKPGSSVKVSCKASGGTFSSYAIQWVRQAPGQGLEWMGGIVGSWGLANYAQKFQGRVTITTDKSTSTAYMELSSLRSEDTAVYYCATSAFGELASWGQGTLVTVSS VL: EIVLTQSPGTLSLSPGERATLSCRASQSVPSSQLAWYQQKPGQAPRLLIYDASSRATGIPDRFSGSGSGTDFTLTISRLEPEDFAVYYCQQYGSSPLTFGQGTKVEIK	0.0112
P4H11 (scFv format) (scFv, part only; not given: linker, domain order, tags, V domains shown, not shown: another chain or arm of the molecule; small tags and cut ends) VH: EVQLLESGGGLVQPGGSLRLSCAASGFTFSSYAMNWVRQAPGKGLEWVSSISGGGRSTYYADSVKGRFTISRDNSKNTLYLQMNSLRAEDTAVYYCARDLSPSDVGWGYGFDIWGQGTLVTVSS VL: EIVLTQSPGTLSLSPGERATLSCRASQSVSNTYLAWYQQKPGQAPRLLIYDTSSRATGIPDRFSGSGSGTDFTLTISRLEPEDFAVYYCQQYGSSLTFGQGTKVEIK	0.00933

Given the binder P4C7 (scFv format) (scFv, part only; not given: linker, domain order, tags, V domains shown, not shown: another chain or arm of the molecule; small tags and cut ends) VH: QVQLVQSGAEVKKPGSSVKVSCKASGGTFSSYTISWVRQAPGQGLEWMGGIIPAFGIANYAQKFQGRVTITADKSTSTAYMELSSLRSEDTAVYYCAKGGSYSLDYFDIWGQGTLVTVSS VL: EIVLTQSPGTLSLSPGERATLSCRASQYVSASLLAWYQQKPGQAPRLLIYGASTRATGIPDRFSGSGSGTDFTLTISRLEPEDFAVYYCQQYARSSTFGQGTKVEIK , write its reported koff.
0.00164
